- system: T1, 4H391-AA
- T1 chain: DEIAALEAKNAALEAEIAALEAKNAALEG
- experiment-summary: two-hybrid library CCmax;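 note: natural log of median RNA to DNA barcode read ratio; higher means stronger binding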
- test-conditions: mean of both orientations
parameter: interaction score

Look over these answered cases.
{"binder": "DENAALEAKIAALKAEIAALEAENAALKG [4H1348-AA]", "interaction score": -1.94}
{"binder": "DKNAALKAEIAALEAKIAALKAENAALKG [4H3628-AA]", "interaction score": -1.27}

a. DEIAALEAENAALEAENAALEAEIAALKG [4H146-AA]
b. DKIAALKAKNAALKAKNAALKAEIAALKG [4H3066-AA]
# input Between a and b , whose measured interaction score reads higher? Answer format: the label of the selected item.
# output b
(b: -1.09, a: -1.68)

The measurements presented in this section are drawn from paper PMC10397247.
